biological target: NAMPT (Homo sapiens, UniProt P43490)
Sequence (P43490 whole entry): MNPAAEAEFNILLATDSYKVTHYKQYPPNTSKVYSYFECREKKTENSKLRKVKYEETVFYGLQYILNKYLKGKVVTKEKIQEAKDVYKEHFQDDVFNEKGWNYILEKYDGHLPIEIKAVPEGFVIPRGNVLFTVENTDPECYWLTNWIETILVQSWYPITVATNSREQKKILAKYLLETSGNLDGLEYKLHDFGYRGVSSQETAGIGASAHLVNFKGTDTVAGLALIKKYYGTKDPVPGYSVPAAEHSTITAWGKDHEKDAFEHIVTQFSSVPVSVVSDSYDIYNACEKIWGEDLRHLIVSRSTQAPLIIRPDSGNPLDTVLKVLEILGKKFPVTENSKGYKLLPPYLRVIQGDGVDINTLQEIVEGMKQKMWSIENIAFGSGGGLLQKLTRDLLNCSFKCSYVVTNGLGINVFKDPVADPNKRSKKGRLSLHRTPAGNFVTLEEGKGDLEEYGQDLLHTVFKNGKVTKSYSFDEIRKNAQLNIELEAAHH
Readout: pIC50
Lab note — pIC50 values are minus log10 of concentrations in M.

Compound	Measurement Target	pIC50
Cl.O=C(/C=C/c1cccnc1)NCCCCCC(=O)N1c2ccccc2CC1c1ccccc1 (stereo not shown) [DGMS-RAR-7•HCl]	NAMPT (Homo sapiens, UniProt P43490)	7.82
O=C(/C=C/c1cccnc1)NCCCCCCn1c(-c2ccccc2)cc2ccccc21 [DGMS-RARI]	NAMPT (Homo sapiens, UniProt P43490)	7.85
O=C(O)CC1CN(C(=O)CCCCCNC(=O)/C=C/c2cccnc2)c2ccccc21 (stereo not shown)	NAMPT (Homo sapiens, UniProt P43490)	5.98
O=C(/C=C/c1cccnc1)NCCCCCCn1c(-c2ccccc2)cc2ccccc21 [DGMS-RARI•HO3SMe]	NAMPT (Homo sapiens, UniProt P43490)	7.92
O=C(O)Cc1cn(CCCCCCNC(=O)/C=C/c2cccnc2)c2ccccc12	NAMPT (Homo sapiens, UniProt P43490)	7.40
CC[Si]1(CC)c2ccccc2N(C(=O)CCCCCNC(=O)/C=C/c2cccnc2)C1C (stereo not shown) [DGMS-RAR-5•OTs]	NAMPT (Homo sapiens, UniProt P43490)	7.99

Request: Tell me pIC50 of [2H][C@@H](C(=O)NCCCCCCn1ccc2cc(OC)ccc21)[C@@H]([2H])c1cccnc1 [5.2.3f D2] when tested on NAMPT (Homo sapiens, UniProt P43490).
Response: 6.18

Request: Tell me pIC50 of CC1Cc2ccccc2N1C(=O)CCCCCNC(=O)/C=C/c1cccnc1 (stereo not shown) when tested on NAMPT (Homo sapiens, UniProt P43490).
Response: 7.31

Request: Tell me pIC50 of CC[Si]1(CC)c2ccccc2N(C(=O)CCCCCNC(=O)/C=C/c2cccnc2)C1C.Cl (stereo not shown) [DGMS-RAR-5•HCl] when tested on NAMPT (Homo sapiens, UniProt P43490).
Response: 7.64

###

target: NAMPT (Homo sapiens, UniProt P43490); construct: purchased MBL International Corporation (CycLex NAMPT Colorimetric Assay Kit Ver.2); assay: CycLex NAMPT Colorimetric Assay; assay type: biochemical
Counter-ions that a name gives are not always drawn.
This listing pairs compounds with measured inhibition at 10 µM.
Just the number please, in %, no unit attached.

Compound	Measurement Target	inhibition at 10 µM [%]
O=C(O)Cc1cn(CCCCCCNC(=O)/C=C/c2cccnc2)c2ccccc12 [DGMS-RAR-PEG2A]	NAMPT (Homo sapiens, UniProt P43490)	98

Request: Tell me inhibition at 10 µM of COCCOCCOCCOCCOC(=O)Cc1cn(CCCCCCNC(=O)/C=C/c2cccnc2)c2ccccc12 [DGMS-RAR-PEG2] when tested on NAMPT (Homo sapiens, UniProt P43490).
Response: 97

Request: Tell me inhibition at 10 µM of CCOC(=O)Cc1cn(CCCCCCNC(=O)/C=C/c2cccnc2)c2ccccc12 [DGMS-RAR-PEG2E] when tested on NAMPT (Homo sapiens, UniProt P43490).
Response: 99

Request: Tell me inhibition at 10 µM of CC[Si]1(CC)c2ccccc2N(C(=O)CCCCCNC(=O)/C=C/c2cccnc2)C1C (stereo not shown) [DGMS-RAR-5•O3SMe] when tested on NAMPT (Homo sapiens, UniProt P43490).
Response: 99

Request: Tell me inhibition at 10 µM of O=C(/C=C/c1cccnc1)NCCCCCCn1ccc2cc(OCc3ccccc3)ccc21 [DGMS-RAR-6•HCl] when tested on NAMPT (Homo sapiens, UniProt P43490).
Response: 97

Request: Tell me inhibition at 10 µM of O=C(/C=C/c1cccnc1)NCCCCCCn1c(-c2ccccc2)cc2ccccc21 [DGMS-RARI] when tested on NAMPT (Homo sapiens, UniProt P43490).
Response: 98

Request: Tell me inhibition at 10 µM of COCCOCCOCCOCCOC(=O)CCC(=O)Oc1ccc2c(ccn2CCCCCCNC(=O)/C=C/c2cccnc2)c1 [DGMS-RAR-mPEG3] when tested on NAMPT (Homo sapiens, UniProt P43490).
Response: 97

###

system: human pulmonary artery endothelial cells (hPAECs); assay: Tunel Assay (apoptosis), hPAEC; assay type: cell-based; settings: Homo sapiens, Endothelial cell, hPAEC
Readout: IC50 (µM)
Just the number please, in µM, no unit attached.

Request: Report IC50, nothing else, for this compound: Cl.O=C(/C=C/c1cccnc1)NCCCCCC(=O)N1c2ccccc2CC1c1ccccc1 (stereo not shown) [DGMS-RAR-7•HCl]
Response: 183

###

assay: Solubility (2.5% v/v DMSO/water); assay type: physicochemical

Compound	Solubility (2.5% v/v DMSO/water)
CC[Si]1(CC)c2ccccc2N(C(=O)CCCCCNC(=O)/C=C/c2cccnc2)C1C (stereo not shown)	Good
CC[Si]1(CC)c2ccccc2N(C(=O)CCCCCNC(=O)/C=C/c2cccnc2)C1C.Cl (stereo not shown) [DGMS-RAR-5•HCl]	Good
COCCOCCOCCOCCOC(=O)CCC(=O)Oc1ccc2c(ccn2CCCCCCNC(=O)/C=C/c2cccnc2)c1	good
